experiment: gradient 5% acetonitrile 3 min, to 50% in 2 min, to 85% in 15 min, held 3 min, 100 µL/min; conditions: column: Zorbax Extend-C18 2.1 x 50 mm; eluents: water / acetonitrile, 0.1% formic acid
Classify as follows. Reported RP-LC retention time greater than or equal to 700 s: MET. Reported RP-LC retention time below: NOT MET.

{"compound": "Cc1ccnc(NS(=O)(=O)c2ccc(NC(=O)C3=COCCO3)cc2)n1", "answerLabel": "NOT MET"}
{"compound": "COc1cc(CN2CC(Oc3ccc(-c4noc(C5CC5)n4)cc3)C2)cc(OC)c1", "answerLabel": "MET"}
{"compound": "CCN(CC)C(=O)c1ccc2c(c1)N(Cc1ccc(F)cc1)C(=O)CO2", "answerLabel": "MET"}
{"compound": "CC(C)(C)c1ccc(-c2csc(N)n2)cc1", "answerLabel": "NOT MET"}
{"compound": "O=C(CSc1nc2ncccc2[nH]1)NC1CCCCC1", "answerLabel": "NOT MET"}
{"compound": "Cc1cc(C(=O)NCCCSC2CCCCC2)n(-c2ccccc2)n1", "answerLabel": "MET"}
{"compound": "Cc1ccc2c(Nc3ccc(S(N)(=O)=O)cc3)c(C(=O)N3CCC(C)CC3)cnc2n1", "answerLabel": "NOT MET"}
{"compound": "O=C(N[C@H]1C[C@@H]2C[C@H]1CN2C(=O)Cc1ccc(OC(F)(F)F)cc1)c1cccs1", "answerLabel": "MET"}
{"compound": "Cc1ccc(Cn2cc(-c3noc(-c4ccc5c(c4)OCO5)n3)nn2)cc1", "answerLabel": "MET"}
{"compound": "CCOC(=O)c1cnn(-c2cccc(Cl)c2)c1C1CCNCC1", "answerLabel": "NOT MET"}
{"compound": "CS(=O)(=O)NCCS(=O)(=O)N1CCN(c2ccccc2F)CC1", "answerLabel": "MET"}
{"compound": "CCOC(=O)c1nc(Nc2ccccc2OCC)c2ccccc2n1", "answerLabel": "MET"}
{"compound": "CCS(=O)(=O)NCc1ccc2c(c1)CCN2C(=O)c1ccc(Cl)cc1", "answerLabel": "MET"}
{"compound": "CC(=O)c1cccc(NC(=O)COc2ccc(C(C)(C)C)cc2)c1", "answerLabel": "MET"}
{"compound": "CCOc1ccc(-n2cc(-c3nc(-c4ccccn4)no3)c3ccccc3c2=O)cc1", "answerLabel": "NOT MET"}
{"compound": "Cc1cc(S(=O)(=O)N2C[C@@H](F)C[C@H]2C(=O)N2CCCCC2)ccc1F", "answerLabel": "MET"}
{"compound": "Cc1ccc(NC(=O)N2CCCC2c2nc(-c3ccccc3C)no2)c(Cl)c1 (stereo not drawn)", "answerLabel": "NOT MET"}
{"compound": "O=C(Nc1ccc(F)cc1F)c1noc2c1CCCC2", "answerLabel": "MET"}
{"compound": "CC(C)c1nncn1C1CCN(S(=O)(=O)c2ccc(C(F)(F)F)cc2)CC1", "answerLabel": "MET"}
{"compound": "O=C(CN1C(=O)C(C(=O)N2CCCC2)Sc2ccccc21)N1CCN(Cc2ccccc2)CC1 (stereo not drawn)", "answerLabel": "NOT MET"}
{"compound": "O=C(NCc1cc(F)ccc1F)C1CCN(c2cnc(N3CCCC3)nc2)CC1", "answerLabel": "NOT MET"}
{"compound": "COc1ccc(-c2noc(-c3ccc(=O)n(Cc4c(F)cccc4Cl)c3)n2)cc1", "answerLabel": "MET"}
{"compound": "COCCN1CCC(N2CCN(S(=O)(=O)c3ccc(C(F)(F)F)cc3)CC2)C1=O (stereo not drawn)", "answerLabel": "NOT MET"}
{"compound": "CCn1nccc1C(=O)N1CCCC1c1ccc(Cl)cc1 (stereo not drawn)", "answerLabel": "MET"}
{"compound": "CCCCC(CC)C(=O)Nc1nc(-c2ccc(Cl)cc2)cs1 (stereo not drawn)", "answerLabel": "MET"}
{"compound": "Cc1ccc2c(C(=O)NCCc3cccs3)cc(NC(=O)C3CC3)cc2n1", "answerLabel": "NOT MET"}
{"compound": "CCOc1ccccc1NC(=O)N1CCC(n2cnc3ccccc3c2=O)CC1", "answerLabel": "MET"}
{"compound": "CCn1ccc(-c2nc(-c3ccc4oc(-c5ccccc5)nc4c3)no2)n1", "answerLabel": "MET"}
{"compound": "CN1C(=O)c2cc(C(=O)NCCN3CCCCC3)nn2CC1(C)C(=O)NCc1ccccc1 (stereo not drawn)", "answerLabel": "NOT MET"}
{"compound": "Cc1ccc(CNc2ccc(-c3nc(-c4ccc(F)cc4)no3)cn2)cc1", "answerLabel": "MET"}
{"compound": "COc1cc(NC(=O)CCc2c(-c3ccc(Cl)cc3)nc3ccccn23)cc(OC)c1OC", "answerLabel": "NOT MET"}
{"compound": "COCCCNC(=O)CN1C(=O)CC(c2ccc(Br)s2)=Nc2ccccc21", "answerLabel": "MET"}
{"compound": "CC(=O)N1CCN(c2nc(-c3ccccc3)c3cc(Br)ccc3n2)CC1", "answerLabel": "MET"}
{"compound": "O=C(CN1C(=O)CSc2ccc(C(=O)N3CCCC3)cc21)N1CCN(c2ncccn2)CC1", "answerLabel": "NOT MET"}
{"compound": "CC(C)c1ccccc1NC(=O)C1CCN(S(C)(=O)=O)c2ccccc2O1 (stereo not drawn)", "answerLabel": "MET"}

// provenance: the METLIN SMRT retention time set (Domingo-Almenara et al. 2019)
